- Test system: Hepatitis B virus
- METHOD NOTES: Antiviral activity against HBV infected in human HepG2.2.15.7 cells assessed as inhibition of viral DNA level after 9 days by real time PCR method
- Format: functional, organism-based
- MEASUREMENT PARAMETERS: HepG2.2.15.7, 216 h
READOUT NAME: EC50

Record excerpt, results attached:
CHEMICAL SMILES	VAL
Cc1ncnc2c1c(Br)cn2[C@@H]1C[C@@H](CO)[C@@H](O)[C@H]1O	6.6 µM
Nc1ccn([C@@H]2CS[C@H](CO)O2)c(=O)n1	0.03 µM

# evaluate next
Input: What value of measured EC50 is listed for Cc1nc(N)c2c(Br)nn([C@@H]3C[C@@H](CO)[C@@H](O)[C@H]3O)c2n1 ?
Output: > 100 µM
